Recorded values, source the MegaScale stability set (Tsuboyama et al. 2023).

B1: r4_43_TrROS_Hall (parent)
chain: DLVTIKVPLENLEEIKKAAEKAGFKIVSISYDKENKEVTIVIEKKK

variants of: B1; assay: folding stability dG (cDNA display proteolysis); higher = more stable; settings: PBS, room temperature
Documented folding stability dG across a set of variants

Entry sequence	folding stability dG
DLVTIKVPLENLEEIKKAAEKAGFKIVSISYDKENKEVSIVIEKKK [T39S]	3.54 kcal/mol
DLVTIKVPLENLEEIKKAAEKAGFKIVSISIDKENKEVTIVIEKKK [Y31I]	3.27 kcal/mol
DLVTIKVPLENLEEIKFAAEKAGFKIVSISYDKENKEVTIVIEKKK [K17F]	4 kcal/mol
DLYTIKVPLENLEEIKKAAEKAGFKIVSISYDKENKEVTIVIEKKK [V3Y]	4.03 kcal/mol
DLVTIVVPLENLEEIKKAAEKAGFKIVSISYDKENKEVTIVIEKKK [K6V]	3.5 kcal/mol
DLVTIKVPLENLEEIKKAAEKAGFKIVSISYDKENKEVTIVNEKKK [I42N]	0.933 kcal/mol
DLVTIKVPLENLEEIKKAAEKAGFKIVSISCDKENKEVTIVIEKKK [Y31C]	3.37 kcal/mol
DLVTIKVPLENLEEIKKAAEIAGFKIVSISYDKENKEVTIVIEKKK [K21I]	3.93 kcal/mol
DLVTIKVPLENLEEIKKAAEKAGFKIVSISYDKENKEVTIVIFKKK [E43F]	4.59 kcal/mol
DLVTIKVPLENLEEIKKAAEKAGFKIVSISYIKENKEVTIVIEKKK [D32I]	3.39 kcal/mol
DLVTIKVPLENLEEIKKAAEKAIFKIVSISYDKENKEVTIVIEKKK [G23I]	2.98 kcal/mol
DLVTIKVPLENLEEIKKAGEKAGFKIVSISYDKENKEVTIVIEKKK [A19G]	3.23 kcal/mol
DNVTIKVPLENLEEIKKAAEKAGFKIVSISYDKENKEVTIVIEKKK [L2N]	3.23 kcal/mol
DLVTIKVPLENLEEIKKAAEKAGFKIVSISYDKENKEVTIVIEKKV [K46V]	3.93 kcal/mol
DLVTIKVPLENLEEIKKAAEKAGFIIVSISYDKENKEVTIVIEKKK [K25I]	3.56 kcal/mol
DLVTIKVPLENLEEIKKAAEKAGFKIVSISYDKENKEVTICIEKKK [V41C]	3.33 kcal/mol
DLVTIKVPLENLEEIKKAAEKAGFKIVSISYDKENKEVTIVIEKCK [K45C]	3.87 kcal/mol
DLVTIPVPLENLEEIKKAAEKAGFKIVSISYDKENKEVTIVIEKKK [K6P]	2.42 kcal/mol
DLVTIKVPLENLEEIKKAAEKAGFHIVSISYDKENKEVTIVIEKKK [K25H]	3.2 kcal/mol
DLVTIKVPLEHLEEIKKAAEKAGFKIVSISYDKENKEVTIVIEKKK [N11H]	3.83 kcal/mol
DLVTIKVPLENLQEIKKAAEKAGFKIVSISYDKENKEVTIVIEKKK [E13Q]	3.6 kcal/mol
DLVTIKVPLENLEEIKKAAEKAGFKIVSISYDKENKRVTIVIEKKK [E37R]	3.53 kcal/mol
DLVTIKVPLENLEEIKKAAEKAGFKIVSISYDKENKEVTIVIDKKK [E43D]	3.9 kcal/mol
DLVTIKVPLENLEEIKKAAESAGFKIVSISYDKENKEVTIVIEKKK [K21S]	3.93 kcal/mol
DLVTIKVPLENLEEIRKAAEKAGFKIVSISYDKENKEVTIVIEKKK [K16R]	3.37 kcal/mol
